The entries below come with measured tumor uptake (image-derived) values attached.
# Tested on: LNCaP xenograft tumor-bearing mice
# procedureDetails: PET/CT imaging of 66Ga-RPS ligands in LNCaP xenograft mice
# Type: in vivo, mouse
# statedConditions: 66Ga PET/CT; 24 h post injection
measure: tumor uptake (image-derived) (% ID/cm^3)

O=C([O-])CN1CCN(CC(=O)[O-])CCN(CC(=O)O)C(Cc2ccc(NC(=S)NCCCC[C@H](NC(=O)CCOCCOCCOCCOCCOCCOCCOCCOCCn3cc(-c4cccc(NC(=O)NCCCC[C@H](NC(=O)N[C@@H](CCC(=O)O)C(=O)O)C(=O)O)c4)nn3)C(=O)N[C@@H](CCCCNC(=O)Cc3ccc(I)cc3)C(=O)O)cc2)CN(CC(=O)[O-])CC1.[66Ga+3] (some centres unmarked) [66Ga-RPS-066] = 5.5
O=C([O-])CN1CCN(CC(=O)[O-])CCN(CC(=O)O)C(Cc2ccc(NC(=S)NCCCC[C@H](NC(=O)CCOCCOCCOCCOCCOCCOCCn3cc(-c4cccc(NC(=O)NCCCC[C@H](NC(=O)N[C@@H](CCC(=O)O)C(=O)O)C(=O)O)c4)nn3)C(=O)N[C@@H](CCCCNC(=O)Cc3ccc(I)cc3)C(=O)O)cc2)CN(CC(=O)[O-])CC1.[66Ga+3] (some centres unmarked) [66Ga-RPS-069] = 7.0
O=C(O)CCC(NC(=O)NC(CCCCNC(=O)Nc1cccc(-c2cnnn2CC(=O)NC(CCCCNC(=S)Nc2ccc(CC3CN(CC(=O)O)CCN(CC(=O)O)CCN(CC(=O)O)CCN3CC(=O)O)cc2)C(=O)NC(CCCCNC(=O)Cc2ccc(I)cc2)C(=O)O)c1)C(=O)O)C(=O)O (centres unmarked) [66Ga-RPS-068, metal not drawn] = 8.3
O=C([O-])CN1CCN(CC(=O)[O-])CCN(CC(=O)O)C(Cc2ccc(NC(=S)NCCCC[C@H](NC(=O)CCOCCOCCOCCn3cc(-c4cccc(NC(=O)NCCCC[C@H](NC(=O)N[C@@H](CCC(=O)O)C(=O)O)C(=O)O)c4)nn3)C(=O)N[C@@H](CCCCNC(=O)Cc3ccc(I)cc3)C(=O)O)cc2)CN(CC(=O)[O-])CC1.[66Ga+3] (some centres unmarked) [66Ga-RPS-063] = 7.9
O=C([O-])CN1CCN(CC(=O)[O-])CCN(CC(=O)O)C(Cc2ccc(NC(=S)NCCCC[C@H](NC(=O)CCOCCOCCOCCOCCn3cc(-c4cccc(NC(=O)NCCCC[C@H](NC(=O)N[C@@H](CCC(=O)O)C(=O)O)C(=O)O)c4)nn3)C(=O)N[C@@H](CCCCNC(=O)Cc3ccc(I)cc3)C(=O)O)cc2)CN(CC(=O)[O-])CC1.[66Ga+3] (some centres unmarked) [66Ga-RPS-061] = 6.1

* * *

# System: LNCaP xenograft tumor-bearing mice
# procedureDetails: Biodistribution studies of 177Lu-labeled ligands in LNCaP xenograft mice
# Assay type: in vivo, mouse
# statedConditions: 4 h p.i.
measure: blood activity (comparison within the series)

O=C(O)CCC(NC(=O)NC(CCCCNC(=O)Nc1cccc(-c2cnnn2CC(=O)NC(CCCCNC(=S)Nc2ccc(CC3CN(CC(=O)O)CCN(CC(=O)O)CCN(CC(=O)O)CCN3CC(=O)O)cc2)C(=O)NC(CCCCNC(=O)Cc2ccc(I)cc2)C(=O)O)c1)C(=O)O)C(=O)O (stereo not drawn) [177Lu-RPS-068, metal not drawn] = highest blood activity
O=C([O-])CN1CCN(CC(=O)[O-])CCN(CC(=O)O)C(Cc2ccc(NC(=S)NCCCC[C@H](NC(=O)CCOCCOCCOCCn3cc(-c4cccc(NC(=O)NCCCC[C@H](NC(=O)N[C@@H](CCC(=O)O)C(=O)O)C(=O)O)c4)nn3)C(=O)N[C@@H](CCCCNC(=O)Cc3ccc(I)cc3)C(=O)O)cc2)CN(CC(=O)[O-])CC1.[177Lu+3] (stereo partly drawn) [177Lu-RPS-063] = highest blood activity

* * *

The entries below come with measured time of maximum uptake in the tumor values attached.
# Tested on: LNCaP xenograft tumor-bearing mice
# procedureDetails: PET/CT imaging of 66Ga-RPS ligands in LNCaP xenograft mice
# Type: in vivo, mouse
# statedConditions: 66Ga PET/CT
measure: time of maximum uptake in the tumor (h)

O=C(O)CCC(NC(=O)NC(CCCCNC(=O)C(Cc1ccc2ccccc2c1)NC(=O)C1CCC(CNC(=O)CN2CCN(CC(=O)O)CCN(CC(=O)O)CCN(CC(=O)O)CC2)CC1)C(=O)O)C(=O)O (stereo not shown) [66Ga-PSMA-617, metal not drawn, reference compound] = 1
O=C([O-])CN1CCN(CC(=O)[O-])CCN(CC(=O)O)C(Cc2ccc(NC(=S)NCCCC[C@H](NC(=O)CCOCCOCCOCCOCCOCCOCCOCCOCCn3cc(-c4cccc(NC(=O)NCCCC[C@H](NC(=O)N[C@@H](CCC(=O)O)C(=O)O)C(=O)O)c4)nn3)C(=O)N[C@@H](CCCCNC(=O)Cc3ccc(I)cc3)C(=O)O)cc2)CN(CC(=O)[O-])CC1.[66Ga+3] (stereo partly shown) [66Ga-RPS-066] = 3
O=C([O-])CN1CCN(CC(=O)[O-])CCN(CC(=O)O)C(Cc2ccc(NC(=S)NCCCC[C@H](NC(=O)CCOCCOCCOCCn3cc(-c4cccc(NC(=O)NCCCC[C@H](NC(=O)N[C@@H](CCC(=O)O)C(=O)O)C(=O)O)c4)nn3)C(=O)N[C@@H](CCCCNC(=O)Cc3ccc(I)cc3)C(=O)O)cc2)CN(CC(=O)[O-])CC1.[66Ga+3] (stereo partly shown) [66Ga-RPS-063] = 6
O=C(O)CCC(NC(=O)NC(CCCCNC(=O)Nc1cccc(-c2cnnn2CC(=O)NC(CCCCNC(=S)Nc2ccc(CC3CN(CC(=O)O)CCN(CC(=O)O)CCN(CC(=O)O)CCN3CC(=O)O)cc2)C(=O)NC(CCCCNC(=O)Cc2ccc(I)cc2)C(=O)O)c1)C(=O)O)C(=O)O (stereo not shown) [66Ga-RPS-068, metal not drawn] = 3
